- TEST DETAILS: Plasma clearance in Sprague-Dawley rat at 1.5 mg/kg, po and 0.5 mg/kg, iv
- Assay type: ADME, organism-based
OBSERVATION TYPE: clearance (mL/min/kg)
Report the figure in mL/min/kg without appending any unit label.

For Cc1ccc(C(=O)O)cc1-c1cnc(N)c(N[C@H](C)c2ccc(Cl)cc2)n1 , what is its reported clearance?
60

---

- TEST DETAILS: Plasma protein binding in rat at 5 uM after 4 hrs by equilibrium dialysis method
- Type: ADME, cell-free
- MEASUREMENT SETUP: read-out: PPB (converted)
OBSERVATION TYPE: fraction unbound at 4 h, 5 µM
Output: the number by itself.

For Cc1ccc(C(=O)O)cc1-c1cnc(N)c(N[C@H](C)c2ccc(Cl)cc2)n1 , what is its reported fraction unbound at 4 h, 5 µM?
0.01

For C[C@@H](Nc1nc(-c2cccc(C(=O)O)c2)cnc1N)c1ccccc1 , what is its reported fraction unbound at 4 h, 5 µM?
0.04

---

- STUDY TARGET: L-lactate dehydrogenase A chain (Homo sapiens)
- TEST DETAILS: Inhibition of human recombinant carboxy-terminal his-tagged LDHA (1 to 331) expressed in Escherichia coli using pyruvate as substrate assessed as disappearance of NADH after 10 mins by fluorescence assay
Consider the following compounds; for each one, report its IC50.
Report the figure in µM without appending any unit label.

For Nc1ncc(-c2cccc(C(=O)O)c2)nc1NCC1CCCC1 , what is its reported IC50?
19

For Cc1c(C(=O)O)cccc1-c1cnc(N)c(N[C@H](C)c2ccccc2)n1 , what is its reported IC50?
35

For C[C@@H](Nc1nc(-c2cccc(C(=O)O)c2)cnc1NS(C)(=O)=O)c1ccccc1 , what is its reported IC50?
71

For Cc1ccc(C(=O)O)cc1-c1cnc(N)c(N[C@H](C)c2ccc(Cl)cc2)n1 , what is its reported IC50?
0.5

For C[C@@H](Nc1nc(-c2cc(C(=O)O)ccc2Cl)cnc1N)c1ccccc1 , what is its reported IC50?
2

For C[C@@H](Nc1nc(-c2csc(C(=O)O)c2)cnc1N)c1ccccc1 , what is its reported IC50?
50

For C[C@@H](Nc1cncc(-c2cccc(C(=O)O)c2)n1)c1ccccc1 , what is its reported IC50?
25

For CC(C)c1ccc(C(=O)O)cc1-c1cnc(N)c(N[C@H](C)c2ccccc2)n1 , what is its reported IC50?
2

For Nc1ncc(-c2cccc(C(=O)O)c2)nc1NCc1ccccc1 , what is its reported IC50?
12

For C[C@@H](Nc1nc(-c2cccc(C(=O)O)c2)cnc1N)C1CCCCC1 , what is its reported IC50?
3

For COc1ccc(C(=O)O)cc1-c1cnc(N)c(N[C@H](C)c2ccccc2)n1 , what is its reported IC50?
2

---

- TEST DETAILS: Plasma protein binding in human at 5 uM after 4 hrs by equilibrium dialysis method
- Assay type: ADME, cell-free
- MEASUREMENT SETUP: read-out: PPB
OBSERVATION TYPE: fraction unbound at 4 h, 5 µM
Output: the number by itself.

For C[C@@H](Nc1nc(-c2cccc(C(=O)O)c2)cnc1N)c1ccccc1 , what is its reported fraction unbound at 4 h, 5 µM?
0.01

---

- TEST DETAILS: Half life in Sprague-Dawley rat at 1.5 mg/kg, po and 0.5 mg/kg, iv
- Assay type: ADME, organism-based
- MEASUREMENT SETUP: in vivo
OBSERVATION TYPE: half-life (h)
Report the figure in h without appending any unit label.

For Cc1ccc(C(=O)O)cc1-c1cnc(N)c(N[C@H](C)c2ccc(Cl)cc2)n1 , what is its reported half-life?
2.8
